# Tested on: UO-31 renal
# assay.overview: NCI-60 one-dose screen, 48 h (100 = growth as untreated, 0 = no growth, -100 = all killed)
# details: 10 µM unless noted
About 83,000 compounds went through this panel and 20% of them were active in at least one assay; those are over-represented in the sample as a whole.
Entries whose growth is below 90% take satisfied; entries at or above 90% take not satisfied.

IN: Strictly below 90% in growth? "O=Cc1ccc(O)c(O)c1"
OUT: satisfied

IN: Determine whether this compound shows growth lower than 90% (ties excluded): "Cc1onc(-c2c(F)cccc2Cl)c1-c1ncc(-c2ccc(Br)cc2)o1"
OUT: satisfied

IN: Criterion: growth strictly below 90%. Is it met by "Clc1ncnc2nc[nH]c12" ?
OUT: satisfied

IN: Please let me know if Nc1ncnc2c1ncn2C1OC(CO)C2OC21 (configuration not stated) shows growth below 90%.
OUT: not satisfied

IN: Hello, is growth of the following compound strictly smaller than 90%? "CCCCNc1ccc(-c2ccc(NCCCC)cc2)cc1"
OUT: satisfied
